- Test system: KM12 colon
- METHOD_SUMMARY: NCI tumour cell line growth inhibition, 48 h
PROPERTY: TGI

IN: Request the reported TGI associated with Cc1ccc(C(=O)N/N=C(\N=Nc2ccc([N+](=O)[O-])cc2)c2ccc(N(CCC#N)CCC#N)cc2C)cc1
OUT: > 100 µM

IN: Next record, please: CCOc1ccc(NC(=O)CC2SC(=Nc3ccc(C)cc3)NC2=O)cc1 (centres undefined)
OUT: > 100 µM

IN: Follow-up item: COc1ccc(OC)c2c(C(C)=O)cccc12
OUT: > 100 µM

IN: Now the same for COc1cc2c(c(OC)c1OC)C(=O)c1c(O)cc(C)c(OC)c1C2=O
OUT: > 100 µM

IN: Next entry: CCCCNc1ncnc2c1cnn2-c1ccccc1
OUT: 27.2 µM

IN: Entry COc1cccc(/C=C2\N=C(c3ccccc3)OC2=O)c1 please
OUT: > 100 µM

IN: Could you do the same for OCCCN=C1CCCCC1 , please?
OUT: > 100 µM

IN: Note, next up: CC(=O)ON(OCc1ccc2ccccc2c1)C(C)=O
OUT: > 100 µM

IN: Cc1nc2ccc(NCCN(C)C)c3c(=O)c4ccccc4n1c23 , same question.
OUT: 13.1 µM

----------
- System: HT29 colon
- METHOD_SUMMARY: NCI tumour cell line growth inhibition, 48 h; in the data active means GI50 below about 0.43 µM; inactive means the rest
Respond using exactly one of the listed classes: active, inactive

IN: // return assay outcome for CCc1ccc2c(c1)C(=O)c1c-2n(CCCN)c(=O)c2cc(OC)c(OC)cc12
OUT: inactive

IN: Another: CC1[C@@]2(CCC(C)(C)O2)O[C@@H]2C=C3C4CCC5Cc6nc7c(nc6C[C@@]5(C)C4C[C@H](O)[C@@]3(C)[C@]12O)CC1CCC2C3=C[C@H]4O[C@@]5(O[C@@](C)(CO)C[C@@H]5O)C(C)[C@@]4(O)[C@]3(C)[C@@H](O)CC2[C@]1(C)C7 (stereo partly drawn)
OUT: active

IN: What about this compound? CCSC[C@@H]1C[C@](O)(c2ccccc2)[C@@H](c2ccccc2)O1
OUT: inactive

IN: Continue with CC(=O)c1cc2c(N)c(C(=O)Nc3cccc4ccccc34)sc2nc1C
OUT: inactive

IN: Similarly, N[C@@H]1CCCN(c2c(Br)cnc3[nH]cc(NC(=O)C4CC4)c23)C1 ?
OUT: inactive

IN: Quick one: CCCN1C(=O)/C(=C/c2ccc(SC(F)(F)F)cc2)SC1=Nc1ccc(OC)cc1
OUT: inactive

IN: Again, but for O=c1c(I)c[nH]cc1I
OUT: inactive

IN: What would you report for O=C(/C=C/c1ccc(O)c(O)c1)N1CCN(c2ccc(Cl)cc2)CC1 ?
OUT: inactive

IN: And for COc1cc(C(=O)c2cnc(-c3c[nH]c4cccc(C)c34)[nH]2)cc(OC)c1OC ?
OUT: active

IN: Then what about the compound Cc1ccc(-c2nc(NCCOCCOCCN)nc(N3CCN(c4ccccn4)CC3)n2)cc1 ?
OUT: inactive

IN: Try this compound too: Clc1ccc(C=Nc2ccc(-c3nc4ccccc4[nH]3)cc2)cc1
OUT: inactive

IN: Another compound to check: Nc1nc(SCc2ccccc2CCl)c2[nH]cnc2n1
OUT: inactive

IN: Further, for CCCCCCCCCCCC1N=C(N)N=C(N)N1c1cccc(Br)c1 (stereo not drawn) ?
OUT: active

IN: Follow-up entry: CN1CCCCC1CCN1c2ccccc2Sc2ccc(Br)cc21 (stereo not drawn)
OUT: inactive

IN: One more compound: CCn1cc(C(=O)O)c(=O)c2cc(F)c(N3CCN(S(=O)(=O)c4ccc(Cl)cc4Cl)CC3)cc21
OUT: inactive

IN: Same thing, different compound: O=C(Nc1cccc(-n2ccc3c(NC(=O)c4ccccc4)ncnc32)c1)Nc1ccc(Cl)c(C(F)(F)F)c1
OUT: inactive

IN: Then Cn1cc(-c2cc(-c3cn(C)c4ccccc34)[nH]n2)c2ccccc21 ?
OUT: inactive

IN: Next compound: COc1cc(-c2nc(-c3ccccc3)c(-c3ccccc3)[nH]2)cc(OC)c1O
OUT: inactive

// provenance: PubChem BioAssay (NCI)
